melting temperature listing for selected substances.
Test system: HeLa Kyoto
Assay: melting temperature (median over replicates), in situ; higher = more thermally stable
Details: cell cycle stage: mitosis

[
  {
    "substance": "MEAVVNLYQEVMKHADPRIQGYPLMGSPLLMTSILLTYVYFVLSLGPRIMANRKPFQLRGFMIVYNFSLVALSLYIVYEFLMSGWLSTYTWRCDPVDYSNSPEALRMVRVAWLFLFSKFIELMDTVIFILRKKDGQVTFLHVFHHSVLPWSWWWGVKIAPGGMGSFHAMINSSVHVIMYLYYGLSAFGPVAQPYLWWKKHMTAIQLIQFVLVSLHISQYYFMSSCNYQYPVIIHLIWMYGTIFFMLFSNFWYHSYTKGKRLPRALQQNGAPGIAKVKAN [ELOVL1]",
    "tested.system": "HeLa Kyoto",
    "melting temperature [°C]": 52.4
  },
  {
    "substance": "MESALAVPRLPPHDPGTPVLSVVDMHTGGEPLRIVLAGCPEVSGPTLLAKRRYMRQHLDHVRRRLMFEPRGHRDMYGAVLVPSELPDAHLGVLFLHNEGYSSMCGHAVLALGRFALDFGLVPAPPAGTREARVNIHCPCGLVTAFVACEDGRSHGPVRFHSVPAFVLATDLMVDVPGHGKVMVDIAYGGAFYAFVTAEKLGLDICSAKTRDLVDAASAVTEAVKAQFKINHPDSEDLAFLYGTILTDGKDAYTKEPTTNICVFADEQVDRSPTGSGVTARIALQYHKGLLELNQMRAFKSSATGSVFTGKAVREAKCGDFKAVIVEVSGQAHYTGTASFIIEDDDPLRDGFLLK [L3HYPDH]",
    "tested.system": "HeLa Kyoto",
    "melting temperature [°C]": 54.4
  },
  {
    "substance": "KIDINS220",
    "tested.system": "HeLa Kyoto",
    "melting temperature [°C]": 52
  },
  {
    "substance": "MAQQQMTSSQKALMLELKSLQEEPVEGFRITLVDESDLYNWEVAIFGPPNTLYEGGYFKAHIKFPIDYPYSPPTFRFLTKMWHPNIYENGDVCISILHPPVDDPQSGELPSERWNPTQNVRTILLSVISLLNEPNTFSPANVDASVMFRKWRDSKGKDKEYAEIIRKQVSATKAEAEKDGVKVPTTLAEYCIKTKVPSNDNSSDLLYDDLYDDDIDDEDEEEEDADCYDDDDSGNEES [UBE2R2]",
    "tested.system": "HeLa Kyoto",
    "melting temperature [°C]": 52.9
  },
  {
    "substance": "MGALVIRGIRNFNLENRAEREISKMKPSVAPRHPSTNSLLREQISLYPEVKGEIARKDEKLLSFLKDVYVDSKDPVSSLQVKAAETCQEPKEFRLPKDHHFDMINIKSIPKGKISIVEALTLLNNHKLFPETWTAEKIMQEYQLEQKDVNSLLKYFVTFEVEIFPPEDKKAIRSK [NDUFAF4]",
    "tested.system": "HeLa Kyoto",
    "melting temperature [°C]": 54.2
  },
  {
    "substance": "CTDSPL2",
    "tested.system": "HeLa Kyoto",
    "melting temperature [°C]": 48.7
  },
  {
    "substance": "MKLPARVFFTLGSRLPCGLAPRRFFSYGTKILYQNTEALQSKFFSPLQKAMLPPNSFQGKVAFITGGGTGLGKGMTTLLSSLGAQCVIASRKMDVLKATAEQISSQTGNKVHAIQCDVRDPDMVQNTVSELIKVAGHPNIVINNAAGNFISPTERLSPNAWKTITDIVLNGTAFVTLEIGKQLIKAQKGAAFLSITTIYAETGSGFVVPSASAKAGVEAMSKSLAAEWGKYGMRFNVIQPGPIKTKGAFSRLDPTGTFEKEMIGRIPCGRLGTVEELANLAAFLCSDYASWINGAVIKFDGGEEVLISGEFNDLRKVTKEQWDTIEELIRKTKGS [DECR1]",
    "tested.system": "HeLa Kyoto",
    "melting temperature [°C]": 55.5
  }
]

====

Test system: HeLa Kyoto
Assay: thermal stability score vs G1/S (z-score of summed log2 fold changes over temperatures); higher = more thermally stable than in G1/S
Conditions: cell cycle stage: early G1 (4.5 h after nocodazole release)
Known thermal stability score of a selection of sequences
recorded.metric: thermal stability score

[
  {
    "biopolymer.sequence": "MAELTALESLIEMGFPRGRAEKALALTGNQGIEAAMDWLMEHEDDPDVDEPLETPLGHILGREPTSSEQGGLEGSGSAAGEGKPALSEEERQEQTKRMLELVAQKQREREEREEREALERERQRRRQGQELSAARQRLQEDEMRRAAEERRREKAEELAARQRVREKIERDKAERAKKYGGSVGSQPPPVAPEPGPVPSSPSQEPPTKREYDQCRIQVRLPDGTSLTQTFRAREQLAAVRLYVELHRGEELGGGQDPVQLLSGFPRRAFSEADMERPLQELGLVPSAVLIVAKKCPS [UBXN1]",
    "recorded.metric": "thermal stability score",
    "meas.value": -1.73
  },
  {
    "biopolymer.sequence": "MAAEGWIWRWGWGRRCLGRPGLLGPGPGPTTPLFLLLLLGSVTADITDGNSEHLKREHSLIKPYQGVGSSSMPLWDFQGSTMLTSQYVRLTPDERSKEGSIWNHQPCFLKDWEMHVHFKVHGTGKKNLHGDGIALWYTRDRLVPGPVFGSKDNFHGLAIFLDTYPNDETTERVFPYISVMVNNGSLSYDHSKDGRWTELAGCTADFRNRDHDTFLAVRYSRGRLTVMTDLEDKNEWKNCIDITGVRLPTGYYFGASAGTGDLSDNHDIISMKLFQLMVEHTPDEESIDWTKIEPSVNFLKSPKDNVDDPTGNFRSGPLTGWRVFLLLLCALLGIVVCAVVGAVVFQKRQERNKRFY [LMAN2]",
    "recorded.metric": "thermal stability score",
    "meas.value": 2.85
  },
  {
    "biopolymer.sequence": "MAGGGAGDPGLGAAAAPAPETREHLFKVLVIGELGVGKTSIIKRYVHQLFSQHYRATIGVDFALKVLNWDSRTLVRLQLWDIAGQERFGNMTRVYYKEAVGAFVVFDISRSSTFEAVLKWKSDLDSKVHLPNGSPIPAVLLANKCDQNKDSSQSPSQVDQFCKEHGFAGWFETSAKDNINIEEAARFLVEKILVNHQSFPNEENDVDKIKLDQETLRAENKSQCC [RAB32]",
    "recorded.metric": "thermal stability score",
    "meas.value": 4.46
  }
]

====

Tested on: HeLa Kyoto
Experiment: thermal stability score vs G1/S (z-score of summed log2 fold changes over temperatures); higher = more thermally stable than in G1/S
Details: cell cycle stage: early G1 (4.5 h after nocodazole release)
We begin with a simple list: items and their reported thermal stability score.
recorded.metric: thermal stability score

[
  {
    "biopolymer.sequence": "MRPVRLMKVFVTRRIPAEGRVALARAADCEVEQWDSDEPIPAKELERGVAGAHGLLCLLSDHVDKRILDAAGANLKVISTMSVGIDHLALDEIKKRGIRVGYTPDVLTDTTAELAVSLLLTTCRRLPEAIEEVKNGGWTSWKPLWLCGYGLTQSTVGIIGLGRIGQAIARRLKPFGVQRFLYTGRQPRPEEAAEFQAEFVSTPELAAQSDFIVVACSLTPATEGLCNKDFFQKMKETAVFINISRGDVVNQDDLYQALASGKIAAAGLDVTSPEPLPTNHPLLTLKNCVILPHIGSATHRTRNTMSLLAANNLLAGLRGEPMPSELKL [GRHPR]",
    "meas.value": 0.108
  },
  {
    "biopolymer.sequence": "MTGNAGEWCLMESDPGVFTELIKGFGCRGAQVEEIWSLEPENFEKLKPVHGLIFLFKWQPGEEPAGSVVQDSRLDTIFFAKQVINNACATQAIVSVLLNCTHQDVHLGETLSEFKEFSQSFDAAMKGLALSNSDVIRQVHNSFARQQMFEFDTKTSAKEEDAFHFVSYVPVNGRLYELDGLREGPIDLGACNQDDWISAVRPVIEKRIQKYSEGEIRFNLMAIVSDRKMIYEQKIAELQRQLAEEEPMDTDQGNSMLSAIQSEVAKNQMLIEEEVQKLKRYKIENIRRKHNYLPFIMELLKTLAEHQQLIPLVEKAKEKQNAKKAQETK [UCHL5]",
    "meas.value": 1.19
  },
  {
    "biopolymer.sequence": "MSGEENPASKPTPVQDVQGDGRWMSLHHRFVADSKDKEPEVVFIGDSLVQLMHQCEIWRELFSPLHALNFGIGGDGTQHVLWRLENGELEHIRPKIVVVWVGTNNHGHTAEQVTGGIKAIVQLVNERQPQARVVVLGLLPRGQHPNPLREKNRQVNELVRAALAGHPRAHFLDADPGFVHSDGTISHHDMYDYLHLSRLGYTPVCRALHSLLLRLLAQDQGQGAPLLEPAP [PAFAH1B3]",
    "meas.value": 0.482
  },
  {
    "biopolymer.sequence": "MSGGRAPAVLLGGVASLLLSFVWMPALLPVASRLLLLPRVLLTMASGSPPTQPSPASDSGSGYVPGSVSAAFVTCPNEKVAKEIARAVVEKRLAACVNLIPQITSIYEWKGKIEEDSEVLMMIKTQSSLVPALTDFVRSVHPYEVAEVIALPVEQGNFPYLQWVRQVTESVSDSITVLP [CUTA]",
    "meas.value": -1.46
  },
  {
    "biopolymer.sequence": "MGSRVSREDFEWVYTDQPHADRRREILAKYPEIKSLMKPDPNLIWIIIMMVLTQLGAFYIVKDLDWKWVIFGAYAFGSCINHSMTLAIHEIAHNAAFGNCKAMWNRWFGMFANLPIGIPYSISFKRYHMDHHRYLGADGVDVDIPTDFEGWFFCTAFRKFIWVILQPLFYAFRPLFINPKPITYLEVINTVAQVTFDILIYYFLGIKSLVYMLAASLLGLGLHPISGHFIAEHYMFLKGHETYSYYGPLNLLTFNVGYHNEHHDFPNIPGKSLPLVRKIAAEYYDNLPHYNSWIKVLYDFVMDDTISPYSRMKRHQKGEMVLE [DEGS1]",
    "meas.value": -0.898
  }
]
